These measurements were taken from ChEMBL document CHEMBL4130544.

- protocol.text: Antioxidant activity assessed as AAPH radical scavenging activity at 12.5 uM by ORAC-FL assay
- Type: functional
Active and inactive are the calls of the source. The rule behind the calls is not given here.
measurement.label: Activity

molecule	reading
COc1cc([C@H]2Oc3c(OC)cc(CCCO)cc3[C@@H]2CO[C@@H]2O[C@H](CO)[C@@H](O)[C@H](O)[C@H]2O)ccc1O	Active
COc1cc([C@H]2OC[C@H]3[C@@H]2CO[C@@H]3c2ccc(O)c(OC)c2)ccc1O (racemic)	Active
O=C(O[C@@H]1Cc2c(O)cc(O)cc2O[C@@H]1c1cc(O)c(O)c(O)c1)c1cc(O)c(O)c(O)c1	1.97 µMequiv/µM
COc1cc([C@H]2Oc3c(OC)cc(CCCO[C@@H]4O[C@H](CO)[C@@H](O)[C@H](O)[C@H]4O)cc3[C@@H]2CO)ccc1O	3.17 µMequiv/µM
